Entries and their viability, T/C values follow.
# Test system: 435261-313-R-J1-PDC tumor spheroid viability;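 note: spheroids exposed to compounds for 7 days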
# Test details: Anticancer human tumor 435261-313-R-J1-PDC patient-derived colon adenocarcinoma cell line growth inhibition [PI3K]
# Condition set: second compound 0.0316 µM; first compound 0.0316 µM; active compounds read low; spheroids with HUVEC and MSC
The reply should be a number in %, with the unit left off.

Q) Given the entry Cn1ncnc1[C@H]1c2n[nH]c(=O)c3cc(F)cc(c23)N[C@@H]1c1ccc(F)cc1 + COc1c(OCCCN2CCOCC2)ccc2c3n(c(=NC(=O)c4cnc(N)nc4)nc12)CCN3 , report its measured viability, T/C.
A) 21.9
